# Tested on: SNB-75 CNS
# measurement-description: NCI-60 one-dose screen, 48 h
# condition-summary: 10 µM unless noted
# Description: Growth inhibition of the SNB-75 human tumor cell line is measured as a screen for anti-cancer activity. Cells are grown in 96 well plates and exposed to the test compound for 48 hours. Compounds are tested at a single concentration, which is 10^-5 M for most compounds. The reported endpoint is percent growth (GI% or GIPRCNT), where numbers from 0 - 100% represent growth inhibition, and numbers from -100% - 0 represent cell death. For example, a value of 40 represents 60% growth inhibition. […]
This is part of a sample that, as a whole, favours compounds with a hit. Of some 83,000 tested, about 20% had one in any assay. Active and inactive are the calls of the source. How the source made its calls: active means growth percent below 10; inactive means the rest.
Labels: y = active, n = inactive

compound: NS(=O)(=O)c1ccc(C(=O)NN2C(=O)c3ccccc3C2=O)cc1
category: n
--
compound: C[C@H](c1nc2ccc(C#N)cc2[nH]1)[C@H]1CC[C@H]2[C@@H]3CCC4=CC(=O)CC[C@]4(C)[C@H]3CC[C@]12C
category: n
--
compound: COc1ccc(C2CC(n3ccnc3)c3cc(OC)c(OC)c(OC)c32)cc1O (centres undefined)
category: n
--
compound: Cc1nc2sc(C(=O)Nc3cccc(Cl)c3C)c(N)c2cc1C(=O)/C=C/c1ccccc1
category: n
--
compound: c1cc(OCCN2CCCC2)ccc1CNc1ccc2nc(CCC3CCCCC3)[nH]c2c1
category: n
--
compound: Fc1cccc(-c2nc(-c3c[nH]c4ncccc34)cs2)c1
category: y
--
compound: c1ccc(-c2ccc3c(c2)C2(CCNCC2)CN3)cc1
category: n
--
compound: CCN(CC)CCN1C(=O)c2c(c3c4ccccc4[nH]c3c3ccc4ccccc4c23)C1=O
category: n
--
compound: Cc1cccc(-c2nc(C(C)C)sc2-c2ccnc(NCCCNS(=O)(=O)c3ccc(Cl)cc3)c2)c1
category: n

###

Each entry below carries its recorded growth.
# Test system: UACC-257 melanoma
# measurement-description: NCI-60 one-dose screen, 48 h (100 = growth as untreated, 0 = no growth, -100 = all killed)
# condition-summary: 10 µM unless noted
About 83,000 compounds went through this panel and 20% of them were active in at least one assay; those are over-represented in the sample as a whole. The source made the active and inactive calls. How the source made its calls: active means growth percent below 10; inactive means the rest.

compound: O=C(Nc1ccc(Oc2cccc(Cl)c2)c(Cl)c1)c1cccnn1
growth: 104% (inactive)
--
compound: COC1/C=C/OC2(C)Oc3c(C)c(O)c4c(O)c(c(/C=N/N(c5ccccc5)c5ccccc5)c(O)c4c3C2=O)NC(=O)C(C)=C/C=C/C(C)C(O)C(C)C(O)C(C)C(OC(C)=O)C1C (stereo not given)
growth: 75.8% (inactive)
--
compound: CCN(CC)c1ccc(-c2cc(-c3cc(OC)c(OC)c(OC)c3)nc(N3CCC(O)CC3)c2C#N)cc1
growth: -47.5% (active)
--
compound: COc1cc(N2C(=O)[C@H](Cl)C2c2ccc(SC)cc2)cc(OC)c1OC (stereo not given in full)
growth: 27.3% (inactive)
--
compound: N#Cc1ccc(O)c(C2=NCC(c3ccc(-c4ccccc4)cc3)O2)c1 (stereo not given)
growth: 13.2% (inactive)
--
compound: CC(C)(C)OC(=O)CN1CCc2c(sc3ncnc(N4CCN(c5ccc(F)cc5)CC4)c23)C1
growth: 97.7% (inactive)
--
compound: O=c1oc2c(cc1-c1ccccc1)c[n+]([O-])c1ccccc21
growth: 100% (inactive)
--
compound: C=C1C(=O)O[C@H]2[C@H]1CC/C(COC(=O)C(=O)c1c[nH]c3ccc(Cl)cc13)=C\CC[C@@]1(C)O[C@@H]21
growth: -75.9% (active)
--
compound: CC1(C)N=C(N)N=C(N)N1c1ccc(S(=O)(=O)Nc2nccs2)cc1
growth: 98.5% (inactive)
--
compound: CC(C)=CC(=O)N[C@H]1CC[C@]2(C)C3CC[C@]4(C)C(C(C)N(C)C)=CCC4C3CCC2[C@H]1O (stereo not given in full)
growth: -26.8% (active)

###

# Tested on: A549/ATCC NSCLC
# measurement-description: NCI-60 one-dose screen, 48 h (100 = growth as untreated, 0 = no growth, -100 = all killed)
# condition-summary: 10 µM unless noted
# Procedure: Growth inhibition of the A549/ATCC human Non-Small Cell Lung tumor cell line is measured as a screen for anti-cancer activity. Cells are grown in 96 well plates and exposed to the test compound for 48 hours. Compounds are tested at a single concentration, which is 10^-5 M for most compounds. The reported endpoint is percent growth (GI% or GIPRCNT), where numbers from 0 - 100% represent growth inhibition, and numbers from -100% - 0 represent cell death. […]
The panel holds about 83,000 compounds, 20% with a hit somewhere; the sample as a whole holds those more often.
// NB: equality with 90% counts as No; only growth strictly below is Yes

compound: O=C(O)c1cn(C2CC2)c2cc(N3CCN(C(=O)N4CCOCC4)CC3)c(F)cc2c1=O
category: No
--
compound: CCCCNC(=O)c1ccc2c(c1)nc(-c1ccccc1)n2C1CCCCC1
category: No
--
compound: Cc1ccc(S(=O)(=O)N2CCCN(c3nc(-c4ccccc4)nc4nc(-c5ccccc5)oc34)CC2)cc1
category: No
--
compound: CCOC(=O)c1cnn(CC(C)O)c1NC(=O)NCc1ccccc1C(F)(F)F (centres undefined)
category: Yes
--
compound: Cc1ccc2c(c1)nc(C)n2-c1ncnc2c1CC(C)c1cc(O)ccc1N2C (centres undefined)
category: Yes
--
compound: COCCn1cc(-c2nc(-c3cc4cccnc4n3C)cs2)c2ccccc21
category: Yes
--
compound: O=c1cc(C(F)(F)F)c2cc(-c3cc4ccccc4c(=O)o3)c(O)cc2o1
category: Yes
--
compound: COc1ccc(C/C(C)=C(\c2ccc(O)cc2)c2ccc(OCCN3CCCCC3)cc2)cc1
category: Yes
--
compound: Cc1cc(=O)oc2cc(Oc3nc(Br)cn4c(Br)cnc34)ccc12
category: Yes
--
compound: COc1ccc(-c2cc(C(=O)N3N=C(c4ccc(N)cc4)CC3c3ccc(Cl)cc3)c3cc(OC)ccc3n2)cc1 (centres undefined)
category: Yes
--
compound: CCCC(O)Cn1ncc(C(=O)OCC)c1NC(=O)NCc1cccc(C(F)(F)F)c1 (centres undefined)
category: No
--
compound: CCN1C2CCC1/C(=C\c1ccccc1)C(=O)/C2=C/c1ccccc1
category: Yes
--
compound: Cc1nn(C)c2ncnc(N/N=C/c3cccc(O)c3O)c12
category: Yes
--
compound: Oc1c(CN2CCC(N3CCOCC3)CC2)cc(Cc2cc(CN3CCC(N4CCOCC4)CC3)c(O)c3ncccc23)c2cccnc12
category: Yes
--
compound: CC1(C)N=C(N)N=C(N)N1c1ccc(S(=O)(=O)Nc2nccs2)cc1
category: No
--
compound: Cc1nc2sc(C(=O)Nc3ccccn3)c(N)c2cc1C(C)O (centres undefined)
category: Yes

###

# Test system: OVCAR-3 ovarian
# measurement-description: NCI-60 one-dose screen, 48 h (100 = growth as untreated, 0 = no growth, -100 = all killed)
# condition-summary: 10 µM unless noted
This is part of a sample that, as a whole, favours compounds with a hit. Of some 83,000 tested, about 20% had one in any assay.

molecule: CC(C)n1c2ccc(Br)cc2c2c3c(c4c5ccccc5ccc4c21)C(=O)NC3=O
unit: %
growth: 94.2
--
molecule: CS(=O)(=O)Nc1cc(-c2ccc3ncnc(Nc4ccc(F)c(Cl)c4)c3c2)ccc1Cl
unit: %
growth: 36.3
--
molecule: COc1cc2c(c(OC)c1OC)C(=O)CC(c1cccc(C(=O)Nc3ccccc3Br)c1)O2 (stereo not given)
unit: %
growth: 97.6
--
molecule: CCCCNC(=O)c1ccc2c(c1)nc(-c1ccccc1)n2C1CCCCC1
unit: %
growth: 115
--
molecule: C=C1C(=O)O[C@H]2[C@H]1CC/C(CNC(=O)Cc1c[nH]c3ccccc13)=C\CC[C@@]1(C)O[C@@H]21
unit: %
growth: -5.5

###

Each entry below carries its recorded growth.
# System: CCRF-CEM leukemia
# measurement-description: NCI-60 one-dose screen, 48 h (100 = growth as untreated, 0 = no growth, -100 = all killed)
# condition-summary: 10 µM unless noted
This is part of a sample that, as a whole, favours compounds with a hit. Of some 83,000 tested, about 20% had one in any assay.
readout-label: growth (%)

record-smiles: Nc1nc(C(=O)N/N=C/c2ccc(F)cc2)nn1-c1ccc(S(N)(=O)=O)cc1
readout-label: growth
test-result: 112
--
record-smiles: C=C1CC[C@@H]2C(C)(C)[C@H](O)CC[C@@]2(C)[C@@H]1COc1ccc2ccc(=O)oc2c1
readout-label: growth
test-result: 26.2
--
record-smiles: C=C1C(=O)O[C@H]2[C@H]1CC/C(COC(=O)NCc1ccc(Cn3c(=O)sn(-c4ccc(I)cc4)c3=O)cc1)=C\CC[C@@]1(C)O[C@@H]21
readout-label: growth
test-result: -14.3
--
record-smiles: COc1cc2c(cc1-c1c(C)noc1C)ncc1nc(CN3CCOCC3)n([C@H](C)COC(F)F)c12
readout-label: growth
test-result: 44
